Origin of measurements: PubChem BioAssay (Tox21)

# method summary: qHTS assay for identifying genotoxic compounds that show differential cytotoxicity against isogenic chicken DT40 cell lines with known DNA damage response pathways - Rad54/Ku70 mutant cell line (AID 743015); further: nearly all actives have a fitted effect of over 60% in size
# particulars: DT40 Rad54/Ku70 mutant viability, CellTiter-Glo, 40 h; series mostly up to 66.8 µM
# Source text: National Center for Advancing Translational Sciences [NCATS] NIH Chemical Genomics Center [NCGC] U.S. Environmental Protection Agency [EPA] National Institutes of Environmental Health Sciences [NIEHS] National Toxicology Program [NTP] U.S. Food and Drug Administration [FDA] DNA repair pathways play a critical role in cellular homeostasis by repairing DNA damage induced by endogenous processes and xenobiotics. […]
Results filed as inconclusive are left out. Activity calls are given as the source filed them. The call rests on the fitted dose curve; in most records, active means well fitted cell-killing curve with a large enough effect in the repeat runs; inconclusive means weak or mixed curves; inactive means no such curve, though single readings can be large or run the other way.
Outcome codes: active, inactive

{"molecule": "Clc1cccc2ccccc12", "class assignment": "inactive"}
{"molecule": "CCOP(O)OCC", "class assignment": "inactive"}
{"molecule": "C=CC(=O)OCC(C)O (stereo not drawn)", "class assignment": "inactive"}
{"molecule": "O=C1NCN(c2ccccc2)C12CCN(CCCOc1ccc(F)cc1)CC2", "class assignment": "active"}
{"molecule": "CC(=O)NC1CCSC1=O (stereo not drawn)", "class assignment": "inactive"}
{"molecule": "CC(C)(Cl)[N+](=O)[O-]", "class assignment": "inactive"}
{"molecule": "NNC(=O)c1cccnc1", "class assignment": "inactive"}
{"molecule": "O=S(=O)(Cl)c1ccccc1", "class assignment": "inactive"}
{"molecule": "O=C(Nc1ccccc1)Nc1cnns1", "class assignment": "active"}
{"molecule": "CC(=O)CCC(C)=O", "class assignment": "inactive"}
{"molecule": "O=C1C(Cl)C(CCl)CN1c1cccc(C(F)(F)F)c1 (stereo not drawn)", "class assignment": "inactive"}
{"molecule": "NCCCNCCCN", "class assignment": "active"}
{"molecule": "COCCOCCO", "class assignment": "active"}

###

# method summary: qHTS assay to identify small molecule that activate the aryl hydrocarbon receptor (AhR) signaling pathway - cell viability counter screen (AID 743086); further: nearly all actives have a fitted effect of over 45% in size
# particulars: HepG2-AhR-luc viability, CellTiter-Fluor, 24 h; series mostly up to 70.3 µM
Records with an inconclusive call do not appear. Activity calls are given as the source filed them. Calls follow the shape of the dose curve; as a rule, active = well fitted cell-killing curve with a large enough effect in the repeat runs; inconclusive = weak or mixed curves, or effect the other way; inactive = flat fitted curve, though single readings scatter.
Outcome codes: active, inactive

{"compound": "C/C=C/C=O", "class assignment": "inactive"}
{"compound": "C=CC(=O)NCNC(=O)C=C", "class assignment": "inactive"}
{"compound": "C=CC(=O)OC", "class assignment": "inactive"}
{"compound": "CCOS(C)(=O)=O", "class assignment": "inactive"}
{"compound": "CCOP(=O)(OCC)Oc1ccc([N+](=O)[O-])cc1", "class assignment": "inactive"}
{"compound": "CC(C)N(C(=O)COc1nnc(C(F)(F)F)s1)c1ccc(F)cc1", "class assignment": "inactive"}
{"compound": "C=C(C#N)CCC#N", "class assignment": "inactive"}
{"compound": "Nc1nc(N)nc(N)n1", "class assignment": "inactive"}
{"compound": "O=C(O)C(F)(F)C(F)(F)C(F)(F)C(F)(F)C(F)(F)C(F)(F)C(F)(F)C(F)(F)C(F)(F)F", "class assignment": "inactive"}
{"compound": "CO[C@@H]1[C@H](OC(=O)NC(=O)CCl)CC[C@]2(CO2)[C@H]1[C@@]1(C)O[C@@H]1CC=C(C)C", "class assignment": "inactive"}
{"compound": "BrCCCCBr", "class assignment": "inactive"}
{"compound": "O=S(=O)(Cl)c1ccccc1", "class assignment": "inactive"}
{"compound": "CCOC(=O)COc1cc(-c2nn(C)c(OC(F)F)c2Cl)c(F)cc1Cl", "class assignment": "inactive"}
{"compound": "CCOP(=O)(OCC)O/C(=C/Cl)c1ccc(Cl)cc1Cl", "class assignment": "inactive"}
{"compound": "COc1c(C(C)(C)C)cc([N+](=O)[O-])c(C)c1[N+](=O)[O-]", "class assignment": "inactive"}
{"compound": "BrCC(Br)C1CCC(Br)C(Br)C1 (configuration not stated)", "class assignment": "inactive"}
{"compound": "Brc1ccc(Oc2ccccc2)cc1", "class assignment": "inactive"}
{"compound": "O=C1NCN(c2ccccc2)C12CCN(CCCOc1ccc(F)cc1)CC2", "class assignment": "active"}
{"compound": "Clc1cccc2ccccc12", "class assignment": "inactive"}
{"compound": "COP(=S)(OC)Oc1cc(Cl)c(I)cc1Cl", "class assignment": "inactive"}
{"compound": "CCCN(CCCl)c1c([N+](=O)[O-])cc(C(F)(F)F)cc1[N+](=O)[O-]", "class assignment": "inactive"}
{"compound": "CCCCN=C=O", "class assignment": "inactive"}
{"compound": "Cc1ccc2ccccc2c1", "class assignment": "inactive"}
{"compound": "Cc1ccccc1CCl", "class assignment": "inactive"}
{"compound": "O=C(O)COc1ccc(Cl)cc1", "class assignment": "inactive"}
{"compound": "CC(Cl)C(C)Cl (configuration not stated)", "class assignment": "inactive"}
{"compound": "NC(=O)C(Cl)(Cl)Cl", "class assignment": "inactive"}
{"compound": "Cc1ccccc1C(=O)Nc1cccc(OC(C)C)c1", "class assignment": "inactive"}
{"compound": "[CH3][Sn]([CH3])([Cl])[Cl]", "class assignment": "inactive"}
{"compound": "C=CCN1CC[C@]23c4c5ccc(O)c4O[C@H]2C(=O)CC[C@@]3(O)[C@H]1C5", "class assignment": "inactive"}
{"compound": "CC(=O)[C@H]1CC[C@H]2[C@@H]3CC[C@H]4C[C@](C)(O)CC[C@]4(C)[C@H]3CC[C@]12C", "class assignment": "inactive"}
{"compound": "Cc1c(F)c(F)c(COC(=O)C2C(/C=C(\\Cl)C(F)(F)F)C2(C)C)c(F)c1F (configuration not stated)", "class assignment": "inactive"}
{"compound": "N#Cc1ccc(Cl)cc1", "class assignment": "inactive"}
{"compound": "COC(=O)C(Cl)C(=O)OC", "class assignment": "inactive"}
{"compound": "O=Cc1ccc(Cl)cc1Cl", "class assignment": "inactive"}
{"compound": "IC(I)=C(I)I", "class assignment": "active"}
{"compound": "CCCC(=O)Cl", "class assignment": "inactive"}
